System: HSV-1 strain F or KOS
testProtocol: Inhibition of herpes simplex virus (HSV-1) replication in cell culture (BHK-21 cells, glycoprotein C ELISA)
Format: cell-based
condition: Human alphaherpesvirus 1, BHK-21, Group 1 Table 1 entries
readoutLabel: pEC50
# pEC50 = -log10(concentration in molar units)

For orientation, consider the following solved cases.
Nc1nc(-c2ccc(NC(=O)CN(Cc3ccccc3Cl)C(=O)c3ccncc3)cc2)cs1 :: 7.72
C[C@@H](c1ccccc1)N(CC(=O)Nc1ccc(-c2csc(N)n2)cc1)C(=O)C1CCCCC1 :: 8.52

Let us examine a further case.
// query Return reported pEC50. Input compound: `Nc1nc(-c2ccc(NC(=O)CN(Cc3ccccn3)C(=O)c3ccncc3)cc2)cs1`
// result 6.26

###

measuredOn: HSV-1 helicase-primase (Human herpesvirus 1, UniProt P10189+P10236)
Construct: made in house; host or cells: Sf21 insect cells triply infected with recombinant baculoviruses (UL5, UL8, UL52)
Sequence (P10192 whole entry): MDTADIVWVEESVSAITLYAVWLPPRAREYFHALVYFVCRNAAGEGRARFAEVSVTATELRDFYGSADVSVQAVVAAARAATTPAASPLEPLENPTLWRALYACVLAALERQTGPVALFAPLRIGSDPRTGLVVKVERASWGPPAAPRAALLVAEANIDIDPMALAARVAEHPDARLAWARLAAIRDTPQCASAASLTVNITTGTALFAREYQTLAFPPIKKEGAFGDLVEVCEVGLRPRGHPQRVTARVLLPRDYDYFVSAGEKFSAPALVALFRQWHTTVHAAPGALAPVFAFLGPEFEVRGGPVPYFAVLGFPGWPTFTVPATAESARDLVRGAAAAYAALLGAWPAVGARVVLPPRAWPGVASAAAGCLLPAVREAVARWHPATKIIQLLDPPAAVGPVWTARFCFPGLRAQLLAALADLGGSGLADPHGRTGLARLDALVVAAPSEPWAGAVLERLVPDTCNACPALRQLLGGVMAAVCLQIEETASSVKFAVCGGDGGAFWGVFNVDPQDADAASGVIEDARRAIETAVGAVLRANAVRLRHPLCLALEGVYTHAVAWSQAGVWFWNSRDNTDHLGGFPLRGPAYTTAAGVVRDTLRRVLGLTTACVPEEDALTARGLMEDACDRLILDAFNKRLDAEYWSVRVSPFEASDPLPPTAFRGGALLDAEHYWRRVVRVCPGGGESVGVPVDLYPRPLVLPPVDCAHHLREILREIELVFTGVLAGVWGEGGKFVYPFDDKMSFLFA
Sequence (P10236 whole entry): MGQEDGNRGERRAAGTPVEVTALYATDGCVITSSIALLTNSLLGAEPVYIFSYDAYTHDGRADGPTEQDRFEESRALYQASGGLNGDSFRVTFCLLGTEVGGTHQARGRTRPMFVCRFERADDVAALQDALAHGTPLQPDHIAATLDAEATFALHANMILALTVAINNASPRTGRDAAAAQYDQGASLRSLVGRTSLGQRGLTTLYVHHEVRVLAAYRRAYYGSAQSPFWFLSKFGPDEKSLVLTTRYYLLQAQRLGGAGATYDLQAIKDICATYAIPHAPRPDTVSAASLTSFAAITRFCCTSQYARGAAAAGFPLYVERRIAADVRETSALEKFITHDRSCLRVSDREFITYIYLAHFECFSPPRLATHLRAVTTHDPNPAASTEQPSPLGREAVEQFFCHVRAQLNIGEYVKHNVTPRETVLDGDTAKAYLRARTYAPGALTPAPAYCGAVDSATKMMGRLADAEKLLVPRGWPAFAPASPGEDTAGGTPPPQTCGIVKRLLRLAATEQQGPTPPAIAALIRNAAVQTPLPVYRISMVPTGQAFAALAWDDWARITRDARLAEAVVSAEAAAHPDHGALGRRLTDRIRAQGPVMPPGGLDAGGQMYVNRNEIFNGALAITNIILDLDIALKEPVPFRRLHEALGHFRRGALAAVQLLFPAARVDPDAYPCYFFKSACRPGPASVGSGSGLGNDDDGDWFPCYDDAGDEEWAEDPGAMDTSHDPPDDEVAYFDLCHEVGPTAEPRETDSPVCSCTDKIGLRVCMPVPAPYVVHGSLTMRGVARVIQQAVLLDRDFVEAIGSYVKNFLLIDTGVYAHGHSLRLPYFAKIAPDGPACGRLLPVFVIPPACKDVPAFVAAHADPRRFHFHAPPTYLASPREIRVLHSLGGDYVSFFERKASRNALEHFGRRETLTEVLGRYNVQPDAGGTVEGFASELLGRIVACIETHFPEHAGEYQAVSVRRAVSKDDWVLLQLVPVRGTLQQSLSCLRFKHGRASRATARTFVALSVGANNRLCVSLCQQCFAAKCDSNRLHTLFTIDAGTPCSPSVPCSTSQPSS
Sequence (P10189 whole entry): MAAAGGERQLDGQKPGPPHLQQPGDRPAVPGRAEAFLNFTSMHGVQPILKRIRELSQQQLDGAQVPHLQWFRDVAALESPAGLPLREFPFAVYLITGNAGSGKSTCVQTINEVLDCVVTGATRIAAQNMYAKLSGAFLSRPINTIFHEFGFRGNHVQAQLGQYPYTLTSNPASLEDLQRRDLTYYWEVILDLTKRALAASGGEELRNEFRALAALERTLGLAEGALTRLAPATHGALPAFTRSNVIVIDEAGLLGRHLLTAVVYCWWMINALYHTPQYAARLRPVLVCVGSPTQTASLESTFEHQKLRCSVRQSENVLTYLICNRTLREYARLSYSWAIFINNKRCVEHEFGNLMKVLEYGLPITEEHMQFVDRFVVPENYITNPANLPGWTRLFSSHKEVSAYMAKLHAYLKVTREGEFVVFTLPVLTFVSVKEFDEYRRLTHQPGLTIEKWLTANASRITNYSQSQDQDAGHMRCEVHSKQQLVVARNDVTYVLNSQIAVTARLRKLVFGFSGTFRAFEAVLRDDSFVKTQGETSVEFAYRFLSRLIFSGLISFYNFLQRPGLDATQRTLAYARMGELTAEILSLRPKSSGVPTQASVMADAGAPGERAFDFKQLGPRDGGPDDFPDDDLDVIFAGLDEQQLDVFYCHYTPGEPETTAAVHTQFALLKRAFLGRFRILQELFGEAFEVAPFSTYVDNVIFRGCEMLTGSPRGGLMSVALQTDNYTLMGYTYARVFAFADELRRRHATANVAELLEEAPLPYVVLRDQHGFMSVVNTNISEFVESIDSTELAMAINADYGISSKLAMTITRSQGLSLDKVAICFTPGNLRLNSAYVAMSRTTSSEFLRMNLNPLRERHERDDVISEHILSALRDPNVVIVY
testProtocol: HSV-1 DNA-dependent ATPase assay (inhibition of HSV-1 helicase-primase)
Format: biochemical
condition: Group 2 Table 1 entries
pIC50: −log10 of the molar value.
Tag: met if measured pIC50 is not below 5, not met if it is.

Past entries and their recorded results:
Nc1nc(-c2ccc(NC(=O)NCCN(Cc3ccccc3)Cc3ccccc3)cc2)cs1 :: met
CCCCN(CCCC)C(=O)Nc1ccc(-c2csc(NC(=O)OC(C)(C)C)n2)cc1 :: not met
CC(C)(C)NC(=O)Nc1ccc(-c2csc(N)n2)cc1 :: not met
C#CCNC(=O)Nc1ccc(-c2csc(N)n2)cc1 :: not met
CCCC(CCC)NC(=O)Nc1ccc(-c2csc(N)n2)cc1 :: not met
Nc1nc(-c2ccc(NC(=O)N[C@H](CO)Cc3ccccc3)cc2)cs1 :: met

// query Please check the record `CN(CCc1ccccn1)C(=O)Nc1ccc(-c2csc(N)n2)cc1` and state if its pIC50 is at or above 5.
// result met

// query Record `Nc1nc(-c2ccc(NC(=O)NCc3cccc(F)c3)cc2)cs1` ; criterion: pIC50 no lower than 5. Met?
// result met

###

measuredOn: HSV-1 helicase-primase (Human herpesvirus 1, UniProt P10189+P10236)
Construct: made in house; host or cells: Sf21 insect cells triply infected with recombinant baculoviruses (UL5, UL8, UL52)
testProtocol: HSV-1 DNA-dependent ATPase assay (inhibition of HSV-1 helicase-primase)
Format: biochemical
condition: Group 1 Table 1 entries
readoutLabel: pIC50
Please keep in mind that pIC50 is minus log10 of the molar concentration; only the number is needed.

// below: answered molecules
Nc1nc(-c2ccc(NC(=O)CN(Cc3ccccc3)C(=O)c3cccnc3)cc2)cs1 :: 6.37
Nc1nc(-c2ccc(NC(=O)CN(Cc3ccccc3)S(=O)(=O)c3ccccc3)cc2)cs1 :: 6.51
Nc1nc(-c2ccc(NC(=O)CN(Cc3ccccc3)C(=O)C3CCCCCC3)cc2)cs1 :: 7.54
Cc1cccc(CN(CC(=O)Nc2ccc(-c3csc(N)n3)cc2)C(=O)c2ccncc2)c1 :: 7.12
Nc1nc(-c2ccc(NC(=O)CN(Cc3ccccc3)C(=O)C3CCCCC3)cc2)cs1 :: 7.59
C[C@@H](c1ccccc1)N(CC(=O)Nc1ccc(-c2csc(N)n2)cc1)C(=O)OC(C)(C)C :: 7.01
CC(C)(C)CN(CC(=O)Nc1ccc(-c2csc(N)n2)cc1)C(=O)C1CCCCC1 :: 6.02

Attention now turns to another entry.
// query Return value of pIC50 for input `NCC(=O)N(CC(=O)Nc1ccc(-c2csc(N)n2)cc1)Cc1ccccc1` , no commentary.
// result 4.52
